These measurements were taken from paper PMC8512853.

system: A549 cells; test: MTT cytotoxicity assay, A549; assay type: cell-based, human; conditions: Homo sapiens; A549, 100 μΜ, 24 h; read-out: Cell Toxicity A549 % (100 μΜ)
Task for the reader: assign each of the following compounds its reported cytotoxicity at 100 µM.
Quick reminder: number only, in %, skip the unit.

## Task Query: cytotoxicity at 100 µM; subject: Cc1c(-c2ccc(O)cc2)c(=O)oc2ccc(Cl)cc12 [Compound 4j]
## Result 33.5

## Task Query: cytotoxicity at 100 µM; subject: COc1cc(C2Oc3cc([C@H]4Oc5cc(O)cc(O)c5C(=O)[C@@H]4O)ccc3OC2CO)ccc1O (stereo partly drawn) [Silibinin, reference compound]
## Result 78.3

## Task Query: cytotoxicity at 100 µM; subject: Cc1c(-c2ccc(O)cc2)c(=O)oc2ccc(Br)cc12 [Compound 4i]
## Result 21.7

## Task Query: cytotoxicity at 100 µM; subject: Cc1c(-c2ccc(O)cc2)c(=O)oc2c(Br)cc(Br)cc12 [Compound 4k]
## Result 66.5

## Task Query: cytotoxicity at 100 µM; subject: Cc1c(-c2ccccc2F)c(=O)oc2cccc(O)c12 [Compound 4d]
## Result 75.7

## Task Query: cytotoxicity at 100 µM; subject: Cc1c(-c2ccc(O)cc2)c(=O)oc2ccccc12 [Compound 4h]
## Result 33.7

## Task Query: cytotoxicity at 100 µM; subject: Cc1c(-c2ccc(Cl)cc2)c(=O)oc2cccc(O)c12 [Compound 4c]
## Result 54.5

## Task Query: cytotoxicity at 100 µM; subject: CC(=O)Oc1cccc2oc(=O)c(-c3cccc(F)c3)c(C)c12 [Compound 3e]
## Result 8.9

## Task Query: cytotoxicity at 100 µM; subject: Cc1c(-c2ccc(F)cc2)c(=O)oc2cccc(O)c12 [Compound 4f]
## Result 62.5
